Biological target: full-length human PKCι (Homo sapiens, UniProt P41743)
Construct: Recombinant, full-length human PKCι expressed in Sf21 insect cells is also commercially available; purchased; host or cells: Sf21 insect cells
Sequence (P41743 whole entry): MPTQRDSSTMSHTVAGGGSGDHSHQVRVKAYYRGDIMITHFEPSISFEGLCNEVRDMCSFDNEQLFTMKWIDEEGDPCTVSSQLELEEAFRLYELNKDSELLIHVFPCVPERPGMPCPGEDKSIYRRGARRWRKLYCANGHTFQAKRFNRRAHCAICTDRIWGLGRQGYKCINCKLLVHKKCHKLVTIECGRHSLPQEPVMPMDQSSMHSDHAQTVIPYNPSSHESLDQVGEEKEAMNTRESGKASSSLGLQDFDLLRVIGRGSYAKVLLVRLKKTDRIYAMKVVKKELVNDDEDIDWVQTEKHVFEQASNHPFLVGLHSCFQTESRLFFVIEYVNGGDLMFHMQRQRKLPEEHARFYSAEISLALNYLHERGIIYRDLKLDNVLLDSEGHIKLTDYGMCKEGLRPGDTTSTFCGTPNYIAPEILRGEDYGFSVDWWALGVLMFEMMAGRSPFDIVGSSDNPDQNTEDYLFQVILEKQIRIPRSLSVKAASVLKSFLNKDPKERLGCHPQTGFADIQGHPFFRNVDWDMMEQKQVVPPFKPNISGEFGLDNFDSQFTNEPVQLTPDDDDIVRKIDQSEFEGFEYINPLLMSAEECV
Assay: PKCι IC50 IMAP fluorescence polarisation assay, full-length enzyme
Type: biochemical
Conditions: full length PKCi at 15 μM ATP; read-out: IC50 in IMAP assay against full length PKCi
pIC50: −log10 of the molar value.
assay metric: pIC50

Example results:
>>> print(df.to_string())
                                   compound                     target_or_test_system  assay_metric        result
0  CC(C)(O)C#Cc1c(C(C)(C)C)sc2c(NC[C@@H](N)Cc3ccccc3)nc(-c3ccncc3)nc12 [compound 505]  full-length human PKCι (Homo sapiens, UniProt P41743)         pIC50  5.00 to 6.00
1  CC(C)(C)c1sc2c(NC[C@@H](N)Cc3ccccc3)nc(-c3ccncc3)nc2c1Br [compound 334]  full-length human PKCι (Homo sapiens, UniProt P41743)         pIC50  5.00 to 6.00
2  Cc1cc(-c2csc3c(NC[C@@H](N)Cc4ccccc4)nc(-c4ccncc4)nc23)n[nH]1 [compound 569]  full-length human PKCι (Homo sapiens, UniProt P41743)         pIC50        > 7.00

pIC50 reading for Cc1sc2c(NC[C@H](N)Cc3ccccc3)nc(-c3ccncc3)nc2c1Br [compound 329] : 5.00 to 6.00

pIC50 reading for CC(C)(O)C#Cc1csc2c(NC[C@@H](N)Cc3ccccc3)nc(-c3ccncc3)nc12 [compound 510] : > 7.00

pIC50 reading for Fc1c(-c2nc(N[C@@H]3CCNC3)c3sccc3n2)ccnc1Nc1ccccc1 [compound 619] : 4.40 to 5.00

###

Biological target: kinase-domain human PKCι (Homo sapiens, UniProt P41743)
Construct: Recombinant, kinase-domain human PKCι is expressed and purified in-house; made in house
Sequence (P41743 254-522 limits assumed): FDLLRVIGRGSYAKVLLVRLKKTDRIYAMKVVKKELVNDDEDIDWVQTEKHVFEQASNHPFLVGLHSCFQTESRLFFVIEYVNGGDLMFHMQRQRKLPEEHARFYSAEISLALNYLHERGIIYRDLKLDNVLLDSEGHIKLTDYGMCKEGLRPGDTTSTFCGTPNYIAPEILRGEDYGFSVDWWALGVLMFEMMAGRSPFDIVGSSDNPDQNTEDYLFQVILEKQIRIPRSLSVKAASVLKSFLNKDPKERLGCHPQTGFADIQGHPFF
Assay: PKCι IC50 IMAP fluorescence polarisation assay, kinase-domain enzyme
Format: biochemical
Conditions: kinase domain PKCi at 2 μM ATP; read-out: IC50 in IMAP assay against kinase domain PKCi (Activity)
pIC50: −log10 of the molar value.
assay metric: pIC50

Example results:
In [3]: df
Out[3]:
                            molecule_smiles                     target_or_test_system        result
0  N[C@H](COc1nc(-c2ccncc2)nc2sc3c(c12)CCCC3)Cc1ccc(Br)cc1  kinase-domain human PKCι (Homo sapiens, UniProt P41743)  5.00 to 6.00
1   CN(CCN)c1nc(-c2ccncc2)nc2sc3c(c12)CCCC3  kinase-domain human PKCι (Homo sapiens, UniProt P41743)  6.00 to 7.00
2  Cc1n[nH]c(C)c1-c1nc(N2CCCNCC2)c2c3c(sc2n1)CCCC3  kinase-domain human PKCι (Homo sapiens, UniProt P41743)  6.00 to 7.00
3  CN1CCN(c2nc(-c3ccncc3)nc3sc4c(c23)CCCC4)CC1  kinase-domain human PKCι (Homo sapiens, UniProt P41743)  5.00 to 6.00
4  Cc1csc2c(NC[C@@H](N)Cc3ccccc3)nc(-c3ccncc3)nc12  kinase-domain human PKCι (Homo sapiens, UniProt P41743)        > 7.00

pIC50 reading for N[C@H](COc1nc(-c2ccncc2)nc2sc3c(c12)CCCC3)Cc1ccc(F)cc1 : 4.40 to 5.00

pIC50 reading for N[C@H](COc1nc(-c2ccncc2)nc2sc3c(c12)CCCC3)Cc1ccc2ccccc2c1 : 4.40 to 5.00

pIC50 reading for CC(C)c1cc2c(NCCN)nc(-c3ccncc3)nc2s1 : 5.00 to 6.00
